Values compiled from patent US20210047373A1.

assay text: Fluorescence brightness with DFHBI-1T
Type: biochemical
assay conditions: normalized 0 to 1 across all three chromophores; average ± SD of two protein concentrations
Protocol: Table 3A-C. Brightness and chromophore affinities of selected mFAP variants. Fluorescence brightness measurements at 10 μM (top table) and 100 nM (middle table) chromophore concentrations were normalized from 0 to 1 across all three chromophores (DFHBI, DFHBI-1T, and DFHO), and the normalized values for two protein concentrations tested for each chromophore at each chromophore concentration were averaged and standard deviations of the average computed. […] Values with “N/D” were not determined.
property measured: Fluorescence brightness, 100 nM DFHBI-1T
Lab note: jot down the number only; don't add units.

Solved cases (2 shown):
molecule	endpoint result
mFAP2.5: SEQ ID NO:60; mutations of mFAP2.3 and mFAP2.4 combined (protein, (1)..(1) optionally absent) MSRAAQLLPGTWQVTMTNEDGQTSQGQWHFQPRSPYTMDIVAQGTISDGRPIVGYGKATVKTPDTLDVDITYPSLGNIKAQGQITMDSPTQFKWDATTKGENDFHGRLTGTLQRQE	0.01
mFAP2.3: SEQ ID NO:58 (protein, (1)..(1) optionally absent) MSRAAQLLPGTWQVTMTNEDGQTSQGQMHFQPRSPYTMDVVAQGTISDGRPIVGYGKVTVKTPDTLDVDITYPSLGNIKAQGQITMDSPTQFKFDATTKGENDFHGRLTGTLQRQE	0.52

Let's switch to this molecule now.
Task: Fill in the blank: the reported Fluorescence brightness, 100 nM DFHBI-1T of mFAP2.2: SEQ ID NO:41 (protein, (1)..(1) optionally absent) MSRAAQLLPGTWQVTMTNEDGQTSQGQMHFQPRSPYTMDVVAQGTISDGRPIVGYGKVTVKTPDTLDVDITYPSLGNIKAQGQITMDSPTQFKFDATTKGAGNFTGRLTGTLQRQE is ____.
Output: 0.33
